Molecular target: T1, T4 DNA ligase (bacteriophage T4, UniProt P00970 1-487)
T1 sequence: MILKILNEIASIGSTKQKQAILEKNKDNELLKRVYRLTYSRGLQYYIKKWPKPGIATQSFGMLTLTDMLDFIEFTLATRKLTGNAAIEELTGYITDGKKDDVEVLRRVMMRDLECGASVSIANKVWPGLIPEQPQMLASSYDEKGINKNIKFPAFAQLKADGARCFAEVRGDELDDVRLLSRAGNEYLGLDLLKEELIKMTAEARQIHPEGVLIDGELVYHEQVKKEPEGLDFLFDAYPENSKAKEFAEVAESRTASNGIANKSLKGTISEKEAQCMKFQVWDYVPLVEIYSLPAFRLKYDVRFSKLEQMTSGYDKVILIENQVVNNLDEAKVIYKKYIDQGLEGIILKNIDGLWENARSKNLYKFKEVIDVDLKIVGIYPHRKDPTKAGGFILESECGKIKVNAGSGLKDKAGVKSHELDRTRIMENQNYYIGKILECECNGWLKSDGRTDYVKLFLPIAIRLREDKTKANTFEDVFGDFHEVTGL
Experiment: fluorescence anisotropy; 10 mM MgCl2, 1 mM ATP; T4 DNA ligase reaction buffer: 50 mM Tris-HCl pH 7.5 (25°C), 1 mM ATP, 10 mM MgCl2; 750 pM-4 nM DNA; anisotropy temperature not stated
Details: label: 3'-FAM on one strand; blunt
Readout name: pKd
Numbers only, as −log10 of the molar value.

Please look up its pKd: Anisotropy 24mer dsDNA (dsDNA) DNA 1: GATCGTCCTTGGTGATCATGCATC DNA 2: GATGCATGATCACCAAGGACGATC 5.72
